- experiment: Single-dose pharmacokinetics and bioavailability after oral gavage administration of EK-ECP
- Format: in vivo, male Sprague–Dawley rats
- condition_info: male, Sprague-Dawley, rat, in vivo, po, 100 mg/kg, PO 100 mg/kg EK-ECP, mean (CV); read-out: AUCTlast
measure: AUC(0-t) (ng·h/mL)

[
  {
    "structure_as_smiles": "Oc1cc(O)cc(Oc2c(O)cc(O)c3c2Oc2c(cc(O)c(-c4c(O)cc5c(c4O)Oc4c(Oc6cc(O)cc(O)c6)c(O)cc(O)c4O5)c2O)O3)c1",
    "unit_abbreviation": "ng·h/mL",
    "numeric_readout": 37.7
  }
]
